Data origin: patent US11185073B2

Could you please report measured melting point for the items listed next?

CC(COC1CCCCCC1)(CC(F)(F)F)NC(=O)c1cnc2c(F)cccc2c1 (stereo not drawn): 80 to 85 °C

Here are 2 compounds. What values of melting point were reported for them?
1. CC(C)(C)COCC(C)(CC(F)(F)F)NC(=O)c1cnc2c(F)cccc2c1 (stereo not drawn)
2. CC(COC1CCC(F)(F)CC1)(CC(F)(F)F)NC(=O)c1cnc2c(F)cccc2c1 (stereo not drawn)

1. 74 to 78 °C
2. 42 to 44 °C

Here are 3 compounds. What values of melting point were reported for them?
1. C[C@](COC1CCCCC1)(CC(F)(F)F)NC(=O)c1cnc2c(F)cccc2c1
2. COCC(C)(CC(C)C)NC(=O)c1cnc2c(F)cccc2c1 (stereo not drawn)
3. CC1(C)CC(OCC(C)(CC(F)(F)F)NC(=O)c2cnc3c(Cl)cccc3c2)C1 (stereo not drawn)

80 to 85 °C
136 to 138 °C
127 to 130 °C

Here are 3 compounds. What values of melting point were reported for them?
1. CC1(C)CC(OCC(C)(CC(F)(F)F)NC(=O)c2cnc3c(F)cccc3c2)C1 (stereo not drawn)
2. CC(C)CC(C)(COCc1ccccc1)NC(=O)c1cnc2c(F)cccc2c1 (stereo not drawn)
3. CC(COc1ccc(Cl)cc1)(CC(F)(F)F)NC(=O)c1cnc2c(F)cccc2c1 (stereo not drawn)

1. 80 to 84 °C
2. 120 to 122 °C
3. 94 to 96 °C
